targetUnderTest: NR1/NR2B (Homo sapiens (Human), UniProt Q05586+Q13224)
Sequence (Q13224 27-1484, other chains not shown): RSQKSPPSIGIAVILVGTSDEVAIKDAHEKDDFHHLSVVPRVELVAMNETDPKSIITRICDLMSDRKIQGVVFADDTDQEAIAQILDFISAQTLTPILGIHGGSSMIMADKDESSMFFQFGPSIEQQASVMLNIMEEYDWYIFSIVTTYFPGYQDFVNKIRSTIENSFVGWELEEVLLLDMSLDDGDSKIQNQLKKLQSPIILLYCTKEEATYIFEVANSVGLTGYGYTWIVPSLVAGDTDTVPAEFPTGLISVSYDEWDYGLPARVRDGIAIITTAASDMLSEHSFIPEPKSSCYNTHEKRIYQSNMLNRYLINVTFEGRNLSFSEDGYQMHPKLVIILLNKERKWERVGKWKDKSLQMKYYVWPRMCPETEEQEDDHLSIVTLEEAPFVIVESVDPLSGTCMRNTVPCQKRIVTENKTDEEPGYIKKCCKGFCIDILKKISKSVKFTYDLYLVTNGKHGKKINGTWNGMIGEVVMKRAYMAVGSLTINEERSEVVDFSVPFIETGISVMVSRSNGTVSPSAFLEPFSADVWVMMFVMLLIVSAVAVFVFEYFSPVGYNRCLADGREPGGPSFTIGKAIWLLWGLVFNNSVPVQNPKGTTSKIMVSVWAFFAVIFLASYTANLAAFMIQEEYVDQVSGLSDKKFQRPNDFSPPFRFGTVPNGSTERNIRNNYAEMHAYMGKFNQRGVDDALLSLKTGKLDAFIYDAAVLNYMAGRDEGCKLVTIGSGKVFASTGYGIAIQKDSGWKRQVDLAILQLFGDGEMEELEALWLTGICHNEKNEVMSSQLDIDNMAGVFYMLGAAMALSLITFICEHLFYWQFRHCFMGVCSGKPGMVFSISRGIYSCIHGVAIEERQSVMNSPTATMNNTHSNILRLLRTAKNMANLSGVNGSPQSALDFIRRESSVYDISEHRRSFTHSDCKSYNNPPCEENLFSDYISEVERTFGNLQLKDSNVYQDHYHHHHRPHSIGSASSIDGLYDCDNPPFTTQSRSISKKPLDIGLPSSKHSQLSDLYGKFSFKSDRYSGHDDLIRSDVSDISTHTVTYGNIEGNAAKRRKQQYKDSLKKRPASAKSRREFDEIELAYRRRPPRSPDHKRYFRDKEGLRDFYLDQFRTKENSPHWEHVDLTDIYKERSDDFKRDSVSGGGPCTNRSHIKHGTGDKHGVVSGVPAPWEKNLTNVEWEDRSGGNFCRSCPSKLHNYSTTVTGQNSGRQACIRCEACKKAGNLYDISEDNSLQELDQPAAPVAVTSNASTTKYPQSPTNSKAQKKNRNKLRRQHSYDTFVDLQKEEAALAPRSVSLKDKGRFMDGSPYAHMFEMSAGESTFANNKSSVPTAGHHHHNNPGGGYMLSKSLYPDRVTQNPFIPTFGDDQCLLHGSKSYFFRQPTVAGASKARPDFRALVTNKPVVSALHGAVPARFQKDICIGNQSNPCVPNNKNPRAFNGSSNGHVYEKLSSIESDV
test: Cell assay: FDSS Ca2+ influx inhibition in HEK293 cells expressing NR1/NR2B
conditionSummary: Binned Activity, HEK293 cells expressing NR1/NR2B, Ca2+ influx; binned NR2B NAM IC50
pIC50: −log10 of the molar value.
Each record here notes measured pIC50.

Some entries whose results are on file:
compound	value
COc1ccc(NC(=O)N2C[C@H]3C[C@@H](c4ccccc4)C[C@H]3C2)cc1 [Example 99]	< 5.00
CS(=O)(=O)Nc1ccc(C(=O)CN2C[C@@H]3C[C@@](O)(Cc4ccccc4)C[C@@H]3C2)nc1 [Example 235]	< 5.00

Asked: Looking for the measured pIC50 of Cc1ccc(NC(=O)N2C[C@@H]3C[C@@](O)(c4ccc(F)cc4)C[C@@H]3C2)cc1 [Example 36] , can you help?
Given back: < 5.00

Asked: Looking for the measured pIC50 of Cc1cc(F)ccc1C[C@]1(O)C[C@H]2CN(CC(=O)c3ccc(O)cn3)C[C@H]2C1 [Example 242] , can you help?
Given back: 5.00 to 6.00

====

targetUnderTest: NR1/NR2B (Homo sapiens (Human), UniProt Q05586+Q13224)
test: Cell assay: FDSS Ca2+ influx inhibition in HEK293 cells expressing NR1/NR2B
conditionSummary: Binned Activity, HEK293 cells expressing NR1/NR2B, Ca2+ influx; binned NR2B NAM IC50
Each record here notes measured IC50.

compound	targetUnderTest	IC50
Cc1cccc(N2C[C@@H]3C[C@@](O)(c4ccc(C(C)(C)C)cc4)C[C@@H]3C2)n1	NR1/NR2B (Homo sapiens (Human), UniProt Q05586+Q13224)	> 10 µM
O=C(CN1CC2(C1)CC(O)(Cc1ccccc1)C2)c1ccc(O)cc1	NR1/NR2B (Homo sapiens (Human), UniProt Q05586+Q13224)	1 to 10 µM
COc1cccc(C(O)CN2C[C@@H]3C[C@@](O)(c4cccc(OC)c4)C[C@@H]3C2)c1 (mixture of isomers)	NR1/NR2B (Homo sapiens (Human), UniProt Q05586+Q13224)	> 10 µM
[2H]C(O)(CN1C[C@@H]2C[C@@](O)(Cc3ccccc3)C[C@@H]2C1)c1ccc(O)cc1 (mixture of isomers)	NR1/NR2B (Homo sapiens (Human), UniProt Q05586+Q13224)	< 0.1 µM
Oc1ccc(C(O)CCN2C[C@@H]3C[C@@](O)(c4ccccc4)C[C@@H]3C2)cc1 (stereo partly drawn)	NR1/NR2B (Homo sapiens (Human), UniProt Q05586+Q13224)	> 10 µM

Asked: Looking for the measured IC50 of COc1cccc(NC(=O)N2C[C@H]3C[C@@H](c4ccccc4)C[C@H]3C2)c1 , can you help?
Given back: > 10 µM

Asked: Looking for the measured IC50 of COC(=O)c1ccc(NC(=O)N2C[C@@H]3C[C@@](O)(c4ccccc4)C[C@@H]3C2)cc1 , can you help?
Given back: > 10 µM

Asked: Looking for the measured IC50 of O=C(CN1C[C@@H]2C[C@@](O)(CC3CC3)C[C@@H]2C1)c1ccc(O)cc1 , can you help?
Given back: > 10 µM

Asked: Looking for the measured IC50 of OC(CN1C[C@@H]2C[C@@](O)(c3ccccc3)C[C@@H]2C1)c1cccc(F)c1 (mixture of isomers) , can you help?
Given back: > 10 µM

Asked: Looking for the measured IC50 of Oc1ccc(C(O)CN2C[C@@H]3C[C@@](O)(Cc4ccccc4F)C[C@@H]3C2)cc1 (mixture of isomers) , can you help?
Given back: < 0.1 µM

Asked: Looking for the measured IC50 of O=C(CCN1C[C@@H]2C[C@@](O)(c3ccccc3)C[C@@H]2C1)c1ccc(O)cc1 , can you help?
Given back: > 10 µM

Asked: Looking for the measured IC50 of Oc1ccc(C(O)CN2C[C@H]3C[C@H](Cc4ccccc4)C[C@H]3C2)cc1 (mixture of isomers) , can you help?
Given back: < 0.1 µM

Asked: Looking for the measured IC50 of O=C(Nc1ccc(F)cc1F)N1C[C@@H]2C[C@@](O)(c3ccccc3)C[C@@H]2C1 , can you help?
Given back: > 10 µM

Asked: Looking for the measured IC50 of CC(C(=O)c1ccc(O)cc1)N1C[C@@H]2C[C@@](O)(c3ccc(F)cc3)C[C@@H]2C1 (mixture of isomers) , can you help?
Given back: > 10 µM

Asked: Looking for the measured IC50 of O=C(CN1C[C@@H]2C[C@@](O)(Cc3ccccc3)C[C@@H]2C1)c1cnc(O)cn1 , can you help?
Given back: > 10 µM

====

targetUnderTest: NR1/NR2B (Homo sapiens (Human), UniProt Q13224)
test: Cell assay: FDSS Ca2+ influx inhibition in HEK293 cells expressing NR1/NR2B
conditionSummary: read-out: NR2B NAM IC50; HEK293 cells expressing NR1/NR2B, Ca2+ influx
pIC50: −log10 of the molar value.
outcomeMeasure: pIC50

O=C(CN1C[C@@H]2C[C@@](O)(Cc3ccccc3)C[C@@H]2C1)c1ccc2[nH]nnc2c1 5.00

1. O=C(CN1C[C@@H]2C[C@@](O)(Cc3ccc(F)cc3)C[C@@H]2C1)c1ccc(O)cc1
2. COC(=O)c1ccc(NC(=O)N2C[C@@H]3C[C@@](O)(c4ccccc4C)C[C@@H]3C2)cc1
3. O=C(CN1C[C@@H]2C[C@@](O)(Cc3ccc(Cl)cc3)C[C@@H]2C1)c1ccc(O)cn1
Asked: Task for the reader: rank each entry by its pIC50, from the minimum upward. Write the labels out in the order the request specifies.
Given back: 2, 3, 1
(2: 5.00, 3: 6.43, 1: 7.36)

====

targetUnderTest: NR1/NR2B (Homo sapiens (Human), UniProt Q05586+Q13224)
test: Cell assay: FDSS Ca2+ influx inhibition in HEK293 cells expressing NR1/NR2B
conditionSummary: Binned Activity, HEK293 cells expressing NR1/NR2B, Ca2+ influx; binned NR2B NAM IC50
Each record here notes measured IC50.

Some entries whose results are on file:
molecule	value
O=C(CN1C[C@@H]2C[C@@](O)(Cc3ccccc3)C[C@@H]2C1)c1ccc(-c2cccnc2)cc1	> 10 µM
O=C(CN1C[C@H]2CC(Cc3ccccc3)C[C@H]2C1)c1ccc(O)cc1 (stereo partly shown)	< 0.1 µM
O=C(Nc1ccc(Cl)c(C(F)(F)F)c1)N1C[C@@H]2C[C@@](O)(c3ccc(F)cc3)C[C@@H]2C1	> 10 µM
O=C(Nc1ccc(O)cc1)N1C[C@H]2C[C@@H](c3ccccc3)C[C@H]2C1	> 10 µM
COc1ccc(-c2ccc(C(=O)CN3C[C@@H]4C[C@@](O)(Cc5ccccc5)C[C@@H]4C3)cc2)cc1	> 10 µM

Asked: Looking for the measured IC50 of O=C(CN1C[C@@H]2C[C@@](O)(Cc3cccc(F)c3F)C[C@@H]2C1)c1ccc(O)cc1 , can you help?
Given back: 0.1 to 1 µM

Asked: Looking for the measured IC50 of Cc1cccc(-c2ccc(C(=O)CN3C[C@@H]4C[C@@](O)(CCc5ccccc5)C[C@@H]4C3)cc2)c1 , can you help?
Given back: > 10 µM

====

targetUnderTest: NR1/NR2B (Homo sapiens (Human), UniProt Q05586+Q13224)
test: Cell assay: FDSS Ca2+ influx inhibition in HEK293 cells expressing NR1/NR2B
conditionSummary: NR2B NAM IC50, HEK293 cells expressing NR1/NR2B, Ca2+ influx
outcomeMeasure: IC50 (µM)

A. CC(=O)Nc1ccc(C(O)CN2C[C@@H]3C[C@@](O)(Cc4ccccc4)C[C@@H]3C2)cc1 (mixture of isomers) [Example 149]
B. CO[C@@]1(Cc2ccccc2)C[C@H]2CN(CC(O)c3ccc(O)c(F)n3)C[C@H]2C1 (mixture of isomers) [Example 198]
Asked: Return label of the item with the larger IC50. Candidates: A , B . Refer to your chosen item by its label in the answer.
Given back: A

====

targetUnderTest: NR1/NR2B (Homo sapiens (Human), UniProt Q05586+Q13224)
test: Cell assay: FDSS Ca2+ influx inhibition in HEK293 cells expressing NR1/NR2B;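 further: Fluo-8 Ca2+ signal read on Hamamatsu FDSS 6000 after glutamate, glycine and Ca2+ challenge following 10 min compound preincubation, end/baseline fluorescence ratio compared with MK801 control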
conditionSummary: Binned Activity, HEK293 cells expressing NR1/NR2B, Ca2+ influx; binned NR2B NAM IC50
pIC50: −log10 of the molar value.
outcomeMeasure: pIC50

compound	outcomeMeasure	value
O=C(Nc1cccc(Cl)c1)N1C[C@@H]2C[C@@](O)(Cc3ccccc3)C[C@@H]2C1	pIC50	< 5.00
Oc1ccc(C(O)CN2C[C@@H]3C[C@@](O)(Cc4ccccc4F)C[C@@H]3C2)nc1 (mixture of isomers)	pIC50	> 7.00
O=C(Nc1cccnc1)N1C[C@H]2C[C@@H](c3ccccc3)C[C@H]2C1	pIC50	< 5.00
O=C(CN1C[C@@H]2C[C@@](O)(Cc3ccccc3)C[C@@H]2C1)c1ccc(O)c(F)c1	pIC50	6.00 to 7.00
Oc1ccc(C(O)CN2C[C@@H]3C[C@@](O)(Cc4ccccc4)C[C@@H]3C2)cn1 (mixture of isomers)	pIC50	< 5.00

Asked: Looking for the measured pIC50 of COc1cccc(NC(=O)N2C[C@@H]3C[C@@](O)(Cc4ccccc4)C[C@@H]3C2)c1 , can you help?
Given back: < 5.00

Asked: Looking for the measured pIC50 of Cc1cc(C)cc(C[C@]2(O)C[C@H]3CN(CC(=O)c4ccc(O)cc4)C[C@H]3C2)c1 , can you help?
Given back: < 5.00
